Organism: Cavia porcellus
Assay: Apparent affinity towards histamine receptor was determined and expressed as pD2
Assign pD2 to each entry below.
Number only, no unit.

-- ask GET /values?readout=pD2&item= NC1=N/C(=C\C(O)CNC(=O)c2cc(Br)c(Br)[nH]2)C(=O)N1 (stereo unspecified)
-- reply 4.48

-- ask Would you mind telling me what pD2 value was observed for `Nc1ncc(/C=C/CNC(=O)c2cc(Br)c(Br)[nH]2)[nH]1` ?
-- reply 4.02

-- ask Return reported pD2; argument: `NC1=N/C(=C\CCNC(=O)c2cc(Br)c[nH]2)C(=O)N1`
-- reply 5.33

-- ask # get_value(readout='pD2', item= `NC1=N/C(=C\CCNC(=O)c2cc(Br)c(Br)[nH]2)C(=O)N1` )
-- reply 5.52

-- ask I would be grateful if you could share the reported pD2 for NC1=N/C(=C\C(O)CNC(=O)c2cc(Br)c[nH]2)C(=O)N1 (stereo unspecified) .
-- reply 4.34

-- ask Which pD2 value is on record for `Nc1nc([C@H]2[C@H](CNC(=O)c3cc(Br)c[nH]3)[C@@H](CNC(=O)c3cc(Br)c[nH]3)[C@@H]2c2c[nH]c(N)n2)c[nH]1` ?
-- reply 4.24
